tested on: A549/ATCC NSCLC; assay: NCI-60 one-dose screen, 48 h; conditions: 10 µM unless noted
Compounds without any hit were thinned out: in the full panel of roughly 83,000, 20% have a hit. Calls of active or inactive are those of the source. Rule for the calls: active = growth percent below 10; inactive = the rest.
Outcomes: active, inactive

* CN1CCN(CCOc2ccc(-c3cnc4c(-c5ccc(C(F)(F)F)cc5)cnn4c3)cc2)CC1 | active
* Oc1c(I)cc(-c2nc3ccccc3s2)cc1CN(Cc1ccccn1)Cc1ccccn1 | active
* CC(C)[C@@]12C[C@@H](OC(=O)COC(=O)c3ccccc3)[C@@](C)(O1)[C@@H]1CC[C@@H](C)[C@H]1[C@@H]2OC(=O)/C=C/c1ccccc1 | inactive
* C=C(CN1CC=CCC1)[C@@H]1CC[C@]2(CO)CC[C@]3(C)[C@H](CC[C@@H]4[C@@]5(C)CC[C@H](O)C(C)(C)[C@@H]5CC[C@]43C)[C@@H]12 | inactive
* C=C1C(=O)O[C@H]2[C@H]1CC/C(COC(=O)NCCCCCCCCNC(=O)OC/C1=C/CC[C@@]3(C)O[C@H]3[C@H]3OC(=O)C(=C)[C@@H]3CC1)=C\CC[C@@]1(C)O[C@@H]21 | active
* Cc1cccc(NC(=O)CSc2nc3ccc([N+](=O)[O-])cc3[nH]2)c1 | inactive
* CCNc1nc(-c2ccc(F)cc2)c(C#N)c(=O)n1C | inactive
* COc1cccc(/C=C2\COc3ccc(O)cc3C2=O)c1 | inactive
* COc1ccc(C2C(C#N)=C(N)Oc3c2sc2c(Br)cccc32)cc1 (stereo not drawn) | inactive
* CC(C)C[C@@H](C(=O)N[C@H](C(=O)OC1CCCC1)c1ccccc1)[C@H](O)C(=O)NO | inactive
* CCOC(=O)C1=C(c2ccccc2)N=c2s/c(=C/c3ccc(Br)cc3)c(=O)n2C1c1ccc(O)cc1 (stereo not drawn) | inactive
* O=C(/C=C/c1ccc(Br)cc1)c1ccc(-n2cc(CN3CCN(c4cc5c(cc4F)c(=O)c(C(=O)O)cn5C4CC4)CC3)nn2)cc1 | inactive
* OC(c1ccccc1)(c1ccccc1)c1ccccc1-c1ccccc1 | inactive
* O=C(CCl)Nc1ccc2c(Nc3cc(O)ccc3Cl)ncnc2c1 | active
* CCNCc1ccc(O)c2ncccc12 | inactive
* CCN(CC)CCCNCc1cc(-c2ccccc2)nc2cc(Cl)ccc12 | inactive
* C/C(=C(/c1ccc(Cl)cc1)c1ccc(OCCCN(C)C)cc1)c1ccc(Cl)cc1 | inactive
* COc1cccc(/C=C/C(=O)c2cc3c(N)c(C(=O)Nc4ccccc4C)sc3nc2C)c1 | inactive
* Cn1ncc2ccc(-c3nc(-c4ccccc4)[nH]c3-c3n[nH]c(=O)n3C3CC3)cc21 | inactive
* O=C(CSc1nc2ccc([N+](=O)[O-])cc2[nH]1)Nc1cccc([N+](=O)[O-])c1 | inactive
* CCN1C(=O)N(CC)C2C1NN=c1s/c(=C3\C(=O)N(CCc4ccccc4)c4ccccc43)c(=O)n12 (stereo not drawn) | inactive
* Cn1c(O)c(C(/C=C/c2ccccc2)=Nc2ccccc2N)c(=O)n(C)c1=O | inactive
* Cc1cscc(C)c1=S | inactive
* C[C@H]1[C@H](C)CC[C@]2(C(=O)O)CC[C@]3(C)C(=CC[C@@H]4[C@@]5(C)C[C@@H](Cc6cn([C@@H]7O[C@H](CO)[C@@H](O)[C@H](O)[C@H]7O)nn6)[C@H](O)C(C)(C)[C@@H]5CC[C@]43C)[C@H]12 | inactive
* CCN(CC)CCNC(=O)c1ccc(-c2nc3ccc4[nH]ncc4c3c3c2CCCC3)cc1 | inactive
* O[C@@H](c1cc(C(F)(F)F)nc2c(C(F)(F)F)cccc12)[C@H]1CCCCN1 | inactive
* CSCCC(NC(=O)c1ccccc1)C(=O)N/N=C1\S/C(=C/c2ccc(Cl)cc2)C(=O)N1C (stereo not drawn) | inactive
* O=C(CBr)CN1C(=O)c2ccccc2C1=O | inactive
* COc1ccc(C2=CN3CC=CCC3CC2=O)cc1 (stereo not drawn) | inactive
* COc1cc2c(c(OC)c1OC)C(=O)CC(c1cccc(NC(=O)c3ccccc3Br)c1)O2 (stereo not drawn) | inactive
* O=C(NCc1ccccc1O)c1cccc2ccccc12 | inactive
* CCCn1c(=S)sc2c1nc(C)n1c(Nc3ccccc3)nnc21 | inactive
* CCN(CC)CCN(CCN(CC)CC)c1ccccc1 | inactive
* Cc1ccc(/C=C/C(=O)c2ccc(NC(=O)CSc3nc4c([nH]3)c(=O)n(C)c(=O)n4C)cc2)c(C)c1 | inactive
* CC(C)CSc1oc(-c2ccccc2)nc1S(=O)(=O)c1ccccc1 | inactive
* O=C(/C=C/C12c3ccccc3C(c3ccccc31)C1C(=O)NC(=O)C12)c1ccccn1 (stereo not drawn) | active
* COC(=O)c1nc(-c2ccccc2)oc1S(=O)(=O)N1CCC(C(N)=O)CC1 | inactive
* CC(=O)c1cc(-c2ccccc2N)n(-c2ccc3c(c2)OCO3)c1C | inactive
